B1: HDV Ribozyme (parent)
chain: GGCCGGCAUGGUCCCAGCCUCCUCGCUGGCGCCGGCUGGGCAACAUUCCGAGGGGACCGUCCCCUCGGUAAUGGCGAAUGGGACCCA

Variants of: B1
Experiment: self-cleavage, relative activity (ratio to wild type); higher = more cleavage; co-transcriptional
Classify by measured self-cleavage: Y if it is equal to or exceeds 0.6, N if it is smaller.

mutation_spec="G11A G80C" class_assignment=N
mutation_spec="C14A G80A" class_assignment=N
mutation_spec="A83G C84A" class_assignment=Y
mutation_spec="C64U G67A" class_assignment=Y
mutation_spec="C49U U72A" class_assignment=Y
mutation_spec="C4G G55C" class_assignment=N
mutation_spec="G35A G68A" class_assignment=N
mutation_spec="G54C A56C" class_assignment=Y
mutation_spec="C26G U60A" class_assignment=Y
mutation_spec="G31U G73C" class_assignment=N
mutation_spec="C3G U23A" class_assignment=Y
